The origin of these recorded values is paper PMC10577934.

- Substrate: O=C(Nc1ccccc1)C(=O)c1ccccc1
- testDetails: initial velocity by HPLC of product, nonlinear Michaelis-Menten fit
- Format: biochemical, Bacillus subtilis
- assayContext: NAD(P)H cofactor, potassium phosphate 100 mM pH 7.0, 30 °C
measurementType: Km

# input Form field: reported Km of iolS (Bacillus subtilis subsp. subtilis str. 168; F126L/I57F) (protein, pET28a, His-tagged, expressed in E. coli BL21(DE3), Ni-NTA purified) MKKAKLGKSDLQVFPIGLGTNAVGGHNLYPNLNEETGKELVREAIRNGVTMLDTAYFYGIGRSEELIGEVLREFNREDVVIATKAAHRKQGNDFVFDNSPDFLKKSVDESLKRLNTDYIDLFYIHLPDEHTPKDEAVNALNEMKKAGKIRSIGVSNFSLEQLKEANKDGLVDVLQGEYNLLNREAEKTFFPYTKEHNISFIPYFPLVSGLLAGKYTEDTTFPEGDLRNEQEHFKGERFKENIRKVNKLAPIAEKHNVDIPHIVLAWYLARPEIDILIPGAKRADQLIDNIKTADVTLSQEDISFIDKLFA
# output 1710 ± 110 µM
